# target_system: D(2) dopamine receptor (Homo sapiens)
# Sequence (P14416 whole entry): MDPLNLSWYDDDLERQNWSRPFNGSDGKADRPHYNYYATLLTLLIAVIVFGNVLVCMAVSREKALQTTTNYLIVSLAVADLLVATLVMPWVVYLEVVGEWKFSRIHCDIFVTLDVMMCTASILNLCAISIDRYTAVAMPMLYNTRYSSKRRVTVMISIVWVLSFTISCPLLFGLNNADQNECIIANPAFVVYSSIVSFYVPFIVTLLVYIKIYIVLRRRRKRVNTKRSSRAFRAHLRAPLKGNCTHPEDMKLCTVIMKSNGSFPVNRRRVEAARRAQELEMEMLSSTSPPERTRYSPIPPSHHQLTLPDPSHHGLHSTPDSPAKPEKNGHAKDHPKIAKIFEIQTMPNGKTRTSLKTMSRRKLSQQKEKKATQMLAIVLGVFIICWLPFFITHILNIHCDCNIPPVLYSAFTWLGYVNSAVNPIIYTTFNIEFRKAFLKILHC
# test_name: Antagonist activity at human D2L receptor expressed in Flp-In-CHO cells
# Assay type: cell-based
observation_type: IC50

Incoming: What value of IC50 has been recorded for this entry: c1cc2c(s1)[C@@H]1CNCCN1CC2
Outgoing: > 100 µM

----------
# target_system: 5-hydroxytryptamine receptor 2C (Homo sapiens)
# Sequence (P28335 whole entry): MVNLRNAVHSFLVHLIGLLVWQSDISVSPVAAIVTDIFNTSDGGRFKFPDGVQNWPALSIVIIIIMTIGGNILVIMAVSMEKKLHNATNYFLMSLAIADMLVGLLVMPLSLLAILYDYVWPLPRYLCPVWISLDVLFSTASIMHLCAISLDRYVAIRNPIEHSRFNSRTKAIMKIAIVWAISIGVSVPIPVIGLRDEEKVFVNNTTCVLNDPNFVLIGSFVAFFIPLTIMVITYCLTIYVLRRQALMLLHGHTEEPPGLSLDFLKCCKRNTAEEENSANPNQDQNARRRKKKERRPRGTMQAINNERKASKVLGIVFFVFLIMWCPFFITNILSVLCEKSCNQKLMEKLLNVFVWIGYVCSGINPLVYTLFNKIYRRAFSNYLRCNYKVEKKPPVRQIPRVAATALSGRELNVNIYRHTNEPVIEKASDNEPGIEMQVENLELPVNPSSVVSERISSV
# test_name: Partial agonist activity at recombinant human 5-HT2CR expressed in HEK293 cells incubated for 2 hrs by FLIPR calcium assay
# Assay type: functional, cell-based
observation_type: EC50 (µM)
Respond with the bare value in µM.

Incoming: Tell me the measured EC50 of COc1ccsc1C1CNCCO1 (stereo in doubt; 25a) , please.
Outgoing: 4.39

----------
# target_system: MAO-A (Homo sapiens, UniProt P21397)
# Sequence (P21397 whole entry): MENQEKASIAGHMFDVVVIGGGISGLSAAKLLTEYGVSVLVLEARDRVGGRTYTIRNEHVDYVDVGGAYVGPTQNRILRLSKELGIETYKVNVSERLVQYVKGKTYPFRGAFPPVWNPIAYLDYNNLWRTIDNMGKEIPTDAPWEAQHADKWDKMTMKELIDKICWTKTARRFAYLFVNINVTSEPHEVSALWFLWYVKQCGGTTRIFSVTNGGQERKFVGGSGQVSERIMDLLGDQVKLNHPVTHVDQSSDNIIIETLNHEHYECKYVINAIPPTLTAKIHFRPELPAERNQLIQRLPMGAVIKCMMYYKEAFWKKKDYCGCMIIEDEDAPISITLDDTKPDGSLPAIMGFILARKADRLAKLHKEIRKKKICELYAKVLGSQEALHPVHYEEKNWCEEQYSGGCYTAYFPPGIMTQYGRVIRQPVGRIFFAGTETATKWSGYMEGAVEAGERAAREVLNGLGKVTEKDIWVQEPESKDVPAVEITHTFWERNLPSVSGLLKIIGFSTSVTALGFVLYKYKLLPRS
# test_name: Binding affinity to MAO-A (unknown origin) at 10 uM by radioligand binding assay relative to control
# condition_set: read-out: Activity
observation_type: activity at 10 µM (%)
Numbers only; they are read as %.

Incoming: Please give the measured activity at 10 µM for this compound: c1cc2c(s1)[C@@H]1CNCCN1CC2
Outgoing: 5.33

----------
# target_system: KCNQ1 (Homo sapiens, UniProt P51787)
# Sequence (P51787 whole entry): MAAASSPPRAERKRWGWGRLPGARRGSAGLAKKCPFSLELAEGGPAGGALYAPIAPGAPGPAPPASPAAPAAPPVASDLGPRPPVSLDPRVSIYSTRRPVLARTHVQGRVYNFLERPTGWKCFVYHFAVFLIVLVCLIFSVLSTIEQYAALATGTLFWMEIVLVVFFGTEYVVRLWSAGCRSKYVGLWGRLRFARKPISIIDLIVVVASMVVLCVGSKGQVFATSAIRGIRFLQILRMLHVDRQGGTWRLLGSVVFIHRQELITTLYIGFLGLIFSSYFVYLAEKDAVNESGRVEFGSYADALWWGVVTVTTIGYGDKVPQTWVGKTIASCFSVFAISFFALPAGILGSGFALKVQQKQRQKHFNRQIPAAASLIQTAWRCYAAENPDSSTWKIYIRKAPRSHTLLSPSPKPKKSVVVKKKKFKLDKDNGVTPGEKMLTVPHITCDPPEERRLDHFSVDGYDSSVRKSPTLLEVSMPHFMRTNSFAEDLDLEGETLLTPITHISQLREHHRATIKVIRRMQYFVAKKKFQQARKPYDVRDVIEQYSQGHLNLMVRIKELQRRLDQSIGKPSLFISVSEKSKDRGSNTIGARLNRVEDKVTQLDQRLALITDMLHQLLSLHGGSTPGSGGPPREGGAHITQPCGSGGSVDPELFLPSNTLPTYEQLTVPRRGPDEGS
# test_name: Binding affinity to human KCNQ1 receptor at 10 uM by radioligand binding assay relative to control
# condition_set: read-out: Activity
observation_type: activity at 10 µM
Record the result as number plus unit.

Incoming: # get_value(readout='activity at 10 µM', item= c1cc2c(s1)[C@@H]1CNCCN1CC2 )
Outgoing: 28.4%

----------
# test_name: AUClast in male mouse at 10 mg/kg, IG measured after 24 hrs
# Assay type: ADME, organism-based
# condition_set: in vivo, po
observation_type: AUC(0-t) at 24 h (µM·h)
Give the number; µM·h is assumed, so skip it.

Incoming: For the compound c1cc2c(s1)[C@@H]1CNCCN1CC2 , what AUC(0-t) at 24 h is on record?
Outgoing: 21.6

----------
# target_system: UniProtKB Q96RJ0
# test_name: Agonist activity at human TAAR1 extracted from CHO-K1 cell membrane coexpressing AGTRL1/Gi by cAMP assay
pEC50: −log10 of the molar value.
observation_type: pEC50

Incoming: // lookup pEC50 for CC(C)Oc1ccsc1C1CNCCO1 (racemic)
Outgoing: < 4.00

Incoming: Name the recorded pEC50 for CN1CCc2ccsc2C1CN (stereo in doubt; 18a) .
Outgoing: < 4.00

Incoming: Param item = CC(=O)c1ccsc1C1CNCCO1 (stereo in doubt; 36a) ; retrieve measured pEC50.
Outgoing: < 4.00

----------
# target_system: Trace amine-associated receptor 1 (Homo sapiens)
# test_name: Agonist activity at human TAAR1 extracted from CHO-K1 cell membrane coexpressing AGTRL1/Gi by measuring maximum efficacy at 0 to 100 uM by cAMP assay relative to control
# Format: functional, cell membranes
# condition_set: dose 0-100 µM
Rule for this label: MET means Emax is less than 20%; NOT MET means Emax is at least 20%.

CCCN1CCc2ccsc2C1CN (stereo in doubt; 19b)
NOT MET

Incoming: Strictly below 20% in Emax? CN1CCc2ccsc2C1CN (stereo in doubt; 18a)
Outgoing: MET

Incoming: Is the reported Emax for CNCC1SCCc2ccsc21 (stereo in doubt; 16a) strictly below 20%?
Outgoing: NOT MET

Incoming: Please state whether Emax is below 20% for CC(=O)c1ccsc1C1CNCCO1 (stereo in doubt; 36a)
Outgoing: MET

Incoming: Report whether reported Emax is lower than 20% (strictly) for CC(C)Oc1ccsc1C1CNCCO1 (racemic)
Outgoing: MET

----------
Recorded Emax values for a group of molecules are listed next.
# target_system: Trace amine-associated receptor 1 (Homo sapiens) (UniProt Q96RJ0)
# Sequence (Q96RJ0 whole entry): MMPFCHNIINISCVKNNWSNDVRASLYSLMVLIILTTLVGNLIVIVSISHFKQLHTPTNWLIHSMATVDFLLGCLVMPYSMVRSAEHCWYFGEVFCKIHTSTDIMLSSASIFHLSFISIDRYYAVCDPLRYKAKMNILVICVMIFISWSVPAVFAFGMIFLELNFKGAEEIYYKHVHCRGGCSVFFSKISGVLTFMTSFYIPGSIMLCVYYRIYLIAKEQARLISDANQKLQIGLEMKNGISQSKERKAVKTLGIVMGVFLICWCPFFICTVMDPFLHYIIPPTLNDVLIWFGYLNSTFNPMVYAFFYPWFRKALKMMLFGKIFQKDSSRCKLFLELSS
# test_name: Agonist activity at human TAAR1 extracted from CHO-K1 cell membrane coexpressing AGTRL1/Gi by measuring maximum efficacy at 0 to 100 uM by cAMP assay relative to control
# Assay type: functional, cell membranes
# condition_set: filed as agonist, dose 0-100 µM
Respond with the bare value in %.

NCCc1ccc(O)cc1
103

Incoming: What value of Emax on Trace amine-associated receptor 1 (Homo sapiens) (UniProt Q96RJ0) does FCCOc1ccsc1C1CNCCO1 (racemic) have?
Outgoing: 46.7

Incoming: Find the measured Emax: item c1cc2c(o1)C1CNCCN1CC2 (stereo in doubt; 22b) , target or system Trace amine-associated receptor 1 (Homo sapiens) (UniProt Q96RJ0).
Outgoing: 94.3

Incoming: Give recorded Emax with Trace amine-associated receptor 1 (Homo sapiens) (UniProt Q96RJ0) for the following molecule: COc1ccc(C2CNCCO2)s1 (stereo in doubt; 27a)
Outgoing: 69

Incoming: Return Emax measured with Trace amine-associated receptor 1 (Homo sapiens) (UniProt Q96RJ0) given this molecule: CC(=O)c1ccsc1C1CNCCO1 (stereo in doubt; 36b)
Outgoing: 41.7

----------
# target_system: Trace amine-associated receptor 1 (Homo sapiens) (UniProt Q96RJ0)
# test_name: Agonist activity at human TAAR1 extracted from CHO-K1 cell membrane coexpressing AGTRL1/Gi by measuring maximum efficacy at 0 to 100 uM by cAMP assay relative to control
# Type: functional, cell membranes
# condition_set: dose 0-100 µM
Consider the following compounds and their measured Emax readings.
Quick reminder: number only, in %, skip the unit.

// solved cases for Emax follow
CCCN1CCc2ccsc2C1CN (stereo in doubt; 19a)
35.7
OCC1OCCc2ccsc21 (stereo in doubt; 15a)
1.94
OCC1OCCc2ccsc21 (stereo in doubt; 15b)
2.72
CCCCCN1CCc2ccsc2C1CN (stereo in doubt; 20a)
0
c1ccc2c(c1)CCN1CCNCC21 (racemic) [AZAQUINZOLE]
37.2

Incoming: Given the entry CNCC1NCCc2ccsc21 (stereo in doubt; 17a) , report its measured Emax.
Outgoing: 33.8

----------
# target_system: Trace amine-associated receptor 1 (Homo sapiens) (UniProt Q96RJ0)
# test_name: Agonist activity at human TAAR1 extracted from CHO-K1 cell membrane coexpressing AGTRL1/Gi by measuring maximum efficacy at 0 to 100 uM by cAMP assay relative to control
# Format: functional, cell membranes
# condition_set: filed as agonist, dose 0-100 µM
observation_type: Emax (%)
Write the number in % without appending the unit.

In the examples that follow, each entry is paired with its recorded Emax.
CN1CCc2ccsc2C1CN (stereo in doubt; 18b)
96.5
Fc1ccsc1C1CNCCO1 (racemic)
100
Fc1ccc(C2CNCCO2)s1 (racemic)
80.8

Shifting focus to the compound that follows.
Incoming: # get_value(readout='Emax', item= COc1ccc(C2CNCCO2)s1 (stereo in doubt; 27b) )
Outgoing: 96.9

----------
Let's look at some compounds and their measured Emax.
# target_system: UniProt Q96RJ0
# test_name: Agonist activity at human TAAR1 extracted from CHO-K1 cell membrane coexpressing AGTRL1/Gi by measuring maximum efficacy at 0 to 100 uM by cAMP assay relative to control
# Format: functional, cell membranes
# condition_set: filed as agonist, dose 0-100 µM
Give the quantity in %, number only.

Please review the following examples before continuing.
Fc1csc(C2CNCCO2)c1 (racemic)
107
CNCC1OC(COC)Cc2ccsc21 (racemic)
64
CC1(c2cccs2)CNCCO1 (racemic)
92.6

Incoming: Param item = c1cc2c(s1)CCN1CCNCC21 (stereo in doubt; 23b) ; retrieve measured Emax.
Outgoing: 77

Incoming: What measured Emax goes with c1cc2c(o1)C1CNCCN1CC2 (stereo in doubt; 22a) ?
Outgoing: 95.6

Incoming: Need Emax of COc1csc(C2CNCCO2)c1 (stereo in doubt; 26b) , thanks.
Outgoing: 85.6

Incoming: Would you mind telling me what Emax value was observed for c1cc2c(s1)CCN1CCNCC21 (stereo in doubt; 23a) ?
Outgoing: 51

Incoming: # query: Emax of entry COc1ccsc1C1CNCCO1 (stereo in doubt; 25a)
Outgoing: 94.1

Incoming: Please report the recorded Emax for c1csc([C@@H]2CNCCO2)c1 .
Outgoing: 80.1

----------
Form field: Emax (one value per entry).
# target_system: Trace amine-associated receptor 1 (Homo sapiens)
# test_name: Agonist activity at human TAAR1 extracted from CHO-K1 cell membrane coexpressing AGTRL1/Gi by measuring maximum efficacy at 0 to 100 uM by cAMP assay relative to control
# Format: functional, cell membranes
# condition_set: filed as agonist, dose 0-100 µM
Your answer should be a plain number; it is taken to be in %.

Look over these answered cases.
COc1ccsc1C1CNCCO1 (stereo in doubt; 25b)
76.4
CNCC1SCCc2ccsc21 (stereo in doubt; 16b)
74.6

Here's the next entry for you.
Incoming: Fill in: Emax of COc1csc(C2CNCCO2)c1 (stereo in doubt; 26a) is ___
Outgoing: 63.8
